tested on: DFTD cell line T3 (06/0368); assay: cell viability, percent of DMSO control (CellTiter-Glo); higher = more viable cells; conditions: 4.5 µM; 72 h
Reported cell viability is given for each of the following molecules.
endpoint: cell viability (%)

[[record]]
smiles_notation = "COc1cc2ncnc(Nc3cccc(Cl)c3)c2cc1OC"
subject_of_test = "DFTD cell line T3 (06/0368)"
readout_units = "%"
value_measured = 53.2

[[record]]
smiles_notation = "CCS(=O)(=O)c1cccc(-c2cc(C(=O)NC3CCN(C)CC3)c(C)c3[nH]c4ncc(C)cc4c23)c1"
subject_of_test = "DFTD cell line T3 (06/0368)"
readout_units = "%"
value_measured = 4.34

[[record]]
smiles_notation = "CC(C)(C)P(=NC(=S)NCCCO)(N1CCCCCC1)N1CCCCCC1"
subject_of_test = "DFTD cell line T3 (06/0368)"
readout_units = "%"
value_measured = 17.6

[[record]]
smiles_notation = "COc1cc2ncnc(Nc3cccc(Cl)c3F)c2cc1OC(=O)N1CCN(C)C[C@H]1C"
subject_of_test = "DFTD cell line T3 (06/0368)"
readout_units = "%"
value_measured = 37.7

[[record]]
smiles_notation = "C=CC(=O)N1CCC[C@@H](n2nc(-c3ccc(Oc4ccccc4)cc3)c3c(N)ncnc32)C1"
subject_of_test = "DFTD cell line T3 (06/0368)"
readout_units = "%"
value_measured = 34.5

[[record]]
smiles_notation = "Cn1nc(-c2ccccn2)nc2c(=O)n(C)c(=O)nc1-2"
subject_of_test = "DFTD cell line T3 (06/0368)"
readout_units = "%"
value_measured = -7.67

[[record]]
smiles_notation = "COc1cc2ncnc(Nc3ccc(F)c(Cl)c3)c2cc1NC(=O)/C=C/CN1CCCCC1"
subject_of_test = "DFTD cell line T3 (06/0368)"
readout_units = "%"
value_measured = 27.9

[[record]]
smiles_notation = "COc1cccc2c1C(=O)c1c(O)c3c(c(O)c1C2=O)C[C@@](O)(C(=O)CO)C[C@@H]3O[C@H]1C[C@H](N)[C@@H](O)[C@H](C)O1.Cl"
subject_of_test = "DFTD cell line T3 (06/0368)"
readout_units = "%"
value_measured = 5.78


###

Here the recorded cell viability is given for each entry.
test system: DFTD cell line T3 (06/0368); experiment: cell viability, percent of DMSO control (CellTiter-Glo); higher = more viable cells; conditions: 0.5 µM; 72 h
endpoint: cell viability (%)

[[record]]
compound = "CN(C)C/C=C/C(=O)Nc1cc2c(Nc3ccc(F)c(Cl)c3)ncnc2cc1O[C@H]1CCOC1 [Afatinib (BIBW2992)]"
subject_of_test = "DFTD cell line T3 (06/0368)"
readout_units = "%"
value_measured = 31.7

[[record]]
compound = "CCOc1cc2ncc(C#N)c(Nc3ccc(F)c(Cl)c3)c2cc1NC(=O)/C=C/CN(C)C [Pelitinib (EKB-569)]"
subject_of_test = "DFTD cell line T3 (06/0368)"
readout_units = "%"
value_measured = 58.9

[[record]]
compound = "O=c1c(=NNc2nnn[nH]2)c(=O)c2ccccc12"
subject_of_test = "DFTD cell line T3 (06/0368)"
readout_units = "%"
value_measured = 99.8

[[record]]
compound = "COc1cccc2c1C(=O)c1c(O)c3c(c(O)c1C2=O)C[C@@](O)(C(=O)CO)C[C@@H]3O[C@H]1C[C@H](N)[C@H](O)[C@H](C)O1.Cl"
subject_of_test = "DFTD cell line T3 (06/0368)"
readout_units = "%"
value_measured = 60.3


###

cell viability: recorded values
tested on: DFTD cell line T1 (06/2887); assay: cell viability, percent of DMSO control (CellTiter-Glo); higher = more viable cells; conditions: 4.5 µM; 72 h
endpoint: cell viability (%)

[[record]]
molecule = "C=CC(=O)N1CCC(Oc2cc3c(Nc4ccc(Cl)c(Cl)c4F)ncnc3cc2OC)CC1 [Poziotinib (HM781-36B)]"
value_measured = 26.8

[[record]]
molecule = "COc1cccc2c1C(=O)c1c(O)c3c(c(O)c1C2=O)C[C@@](O)(C(=O)CO)C[C@@H]3O[C@H]1C[C@H](N)[C@H](O)[C@H](C)O1.Cl"
value_measured = 1.1

[[record]]
molecule = "Cc1cc(Nc2ncnc3ccc(NC4=NC(C)(C)CO4)cc23)ccc1Oc1ccn2ncnc2c1 [Irbinitinib(ARRY-380; ONT-380)]"
value_measured = 33

[[record]]
molecule = "O=c1c(=NNc2nnn[nH]2)c(=O)c2ccccc12"
value_measured = -3.59

[[record]]
molecule = "COc1cc2ncnc(Nc3cccc(Br)c3)c2cc1OC.Cl"
value_measured = 22.8

[[record]]
molecule = "CS(=O)(=O)CCNCc1ccc(-c2ccc3ncnc(Nc4ccc(OCc5cccc(F)c5)c(Cl)c4)c3c2)o1.Cc1ccc(S(=O)(=O)O)cc1.Cc1ccc(S(=O)(=O)O)cc1.O [Lapatinib ditosylate monohydrate]"
value_measured = 31.9

[[record]]
molecule = "COc1cccc2c1C(=O)c1c(O)c3c(c(O)c1C2=O)C[C@@](O)(C(=O)CO)C[C@@H]3O[C@H]1C[C@H](N)[C@@H](O)[C@H](C)O1.Cl"
value_measured = -3.85

[[record]]
molecule = "CCOc1cc2ncc(C#N)c(Nc3ccc(F)c(Cl)c3)c2cc1NC(=O)/C=C/CN(C)C [Pelitinib (EKB-569)]"
value_measured = 34.1

[[record]]
molecule = "CN(C)C/C=C/C(=O)Nc1cc2c(Nc3ccc(F)c(Cl)c3)ncnc2cc1O[C@H]1CCOC1 [Afatinib (BIBW2992)]"
value_measured = 4.12

[[record]]
molecule = "C=CC(=O)N1CCC[C@@H](n2nc(-c3ccc(Oc4ccccc4)cc3)c3c(N)ncnc32)C1"
value_measured = 28.6

[[record]]
molecule = "C=CC(=O)Nc1cccc(Nc2nc(Nc3ccc(N4CCN(C(C)=O)CC4)cc3OC)ncc2C(F)(F)F)c1 [Rociletinib (CO-1686, AVL-301)]"
value_measured = 16.9

[[record]]
molecule = "Cn1nc(-c2ccccn2)nc2c(=O)n(C)c(=O)nc1-2"
value_measured = -6.25

[[record]]
molecule = "CCS(=O)(=O)c1cccc(-c2cc(C(=O)NC3CCN(C)CC3)c(C)c3[nH]c4ncc(C)cc4c23)c1 [TAK901]"
value_measured = 12

[[record]]
molecule = "COc1cc2ncnc(Nc3ccc(Cl)cc3F)c2cc1OC"
value_measured = 26.7

[[record]]
molecule = "CCOc1cc2ncc(C#N)c(Nc3ccc(OCc4ccccn4)c(Cl)c3)c2cc1NC(=O)/C=C/CN(C)C [Neratinib(HKI-272)]"
value_measured = 29.2


###

test system: DFTD cell line T3 (06/0368); experiment: cell viability, percent of DMSO control (CellTiter-Glo); higher = more viable cells; settings: 0.5 µM; 72 h
cell viability: recorded values
endpoint: cell viability (%)

[[record]]
smiles_notation = "CCS(=O)(=O)c1cccc(-c2cc(C(=O)NC3CCN(C)CC3)c(C)c3[nH]c4ncc(C)cc4c23)c1"
value_measured = 104

[[record]]
smiles_notation = "CCN1CCN(Cc2ccc(-c3cc4c(N[C@H](C)c5ccccc5)ncnc4[nH]3)cc2)CC1"
value_measured = 49.8

[[record]]
smiles_notation = "COc1cc2ncnc(Nc3ccc(F)c(Cl)c3)c2cc1NC(=O)/C=C/CN1CCCCC1"
value_measured = 39.7

[[record]]
smiles_notation = "COc1cc2ncnc(Nc3ccc(Cl)cc3F)c2cc1OC"
value_measured = 85.5

[[record]]
smiles_notation = "COc1cccc2c1C(=O)c1c(O)c3c(c(O)c1C2=O)C[C@@](O)(C(=O)CO)C[C@@H]3O[C@H]1C[C@H](N)[C@H](O)[C@H](C)O1"
value_measured = 66.5

[[record]]
smiles_notation = "CS(=O)(=O)CCNCc1ccc(-c2ccc3ncnc(Nc4ccc(OCc5cccc(F)c5)c(Cl)c4)c3c2)o1.Cc1ccc(S(=O)(=O)O)cc1"
value_measured = 63

[[record]]
smiles_notation = "C=CC(=O)Nc1cc2c(Nc3ccc(F)c(Cl)c3)ncnc2cc1OCCCN1CCOCC1"
value_measured = 89

[[record]]
smiles_notation = "COc1cc2ncnc(Nc3cccc(Cl)c3)c2cc1OC"
value_measured = 83.2


###

system: DFTD cell line T3 (06/0368); test: cell viability, percent of DMSO control (CellTiter-Glo); higher = more viable cells; conditions: 0.166667 µM; 72 h
endpoint: cell viability (%)

[[record]]
compound = "CS(=O)(=O)CCNCc1ccc(-c2ccc3ncnc(Nc4ccc(OCc5cccc(F)c5)c(Cl)c4)c3c2)o1.Cc1ccc(S(=O)(=O)O)cc1"
subject_of_test = "DFTD cell line T3 (06/0368)"
value_measured = 97.4

[[record]]
compound = "CC1(C)CC(=O)C2=C(C1)NC(=S)NC2c1cccc(O)c1 (stereo unspecified)"
subject_of_test = "DFTD cell line T3 (06/0368)"
value_measured = 110

[[record]]
compound = "Cn1cnc2c(F)c(Nc3ccc(Br)cc3Cl)c(C(=O)NOCCO)cc21.O=S(=O)(O)O"
subject_of_test = "DFTD cell line T3 (06/0368)"
value_measured = 75.3

[[record]]
compound = "COc1cc2ncnc(Nc3cccc(Cl)c3)c2cc1OC"
subject_of_test = "DFTD cell line T3 (06/0368)"
value_measured = 117

[[record]]
compound = "COc1cc2ncnc(Nc3ccc(Cl)cc3F)c2cc1OC"
subject_of_test = "DFTD cell line T3 (06/0368)"
value_measured = 97.1

[[record]]
compound = "C=CC(=O)N1CCC[C@@H](n2nc(-c3ccc(Oc4ccccc4)cc3)c3c(N)ncnc32)C1"
subject_of_test = "DFTD cell line T3 (06/0368)"
value_measured = 65.1

[[record]]
compound = "CCS(=O)(=O)c1cccc(-c2cc(C(=O)NC3CCN(C)CC3)c(C)c3[nH]c4ncc(C)cc4c23)c1"
subject_of_test = "DFTD cell line T3 (06/0368)"
value_measured = 98.5

[[record]]
compound = "CN(C)C/C=C/C(=O)Nc1cc2c(Nc3ccc(F)c(Cl)c3)ncnc2cc1O[C@H]1CCOC1"
subject_of_test = "DFTD cell line T3 (06/0368)"
value_measured = 34

[[record]]
compound = "O=c1c(=NNc2nnn[nH]2)c(=O)c2ccccc12"
subject_of_test = "DFTD cell line T3 (06/0368)"
value_measured = 110

[[record]]
compound = "C#Cc1cccc(Nc2ncnc3cc(OCCOC)c(OCCOC)cc23)c1.Cl [Erlotinib hydrochloride]"
subject_of_test = "DFTD cell line T3 (06/0368)"
value_measured = 93.5

[[record]]
compound = "CNC(=O)CN1CCC(Oc2cc3c(Nc4cccc(Cl)c4F)ncnc3cc2OC)CC1 [AZD8931 (Sapitinib)]"
subject_of_test = "DFTD cell line T3 (06/0368)"
value_measured = 55.9

[[record]]
compound = "C=CC(=O)Nc1cccc(Nc2nc(Nc3ccc(N4CCN(C(C)=O)CC4)cc3OC)ncc2C(F)(F)F)c1"
subject_of_test = "DFTD cell line T3 (06/0368)"
value_measured = 99.1

[[record]]
compound = "C=CC(=O)N1CCC(Oc2cc3c(Nc4ccc(Cl)c(Cl)c4F)ncnc3cc2OC)CC1 [Poziotinib (HM781-36B)]"
subject_of_test = "DFTD cell line T3 (06/0368)"
value_measured = 44.6

[[record]]
compound = "COc1cccc2c1C(=O)c1c(O)c3c(c(O)c1C2=O)C[C@@](O)(C(=O)CO)C[C@@H]3O[C@H]1C[C@H](N)[C@H](O)[C@H](C)O1"
subject_of_test = "DFTD cell line T3 (06/0368)"
value_measured = 77

[[record]]
compound = "COc1cc2ncnc(Nc3ccc(F)c(Cl)c3)c2cc1NC(=O)/C=C/CN1CCCCC1"
subject_of_test = "DFTD cell line T3 (06/0368)"
value_measured = 77.7

[[record]]
compound = "CCN1CCN(Cc2ccc(-c3cc4c(N[C@H](C)c5ccccc5)ncnc4[nH]3)cc2)CC1"
subject_of_test = "DFTD cell line T3 (06/0368)"
value_measured = 77.2

